test: qHTS for identification of novel therapeutic agents for treatment of microphthalmiaassociated transcription factor (MiT) renal cell carcinoma (RCC) (AID 1963991); conditions: TFE3-RCC UOK109 viability, CellTiter-Glo, 48 h; measured here: UOK109 Z-AUC; stronger effect = lower value;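 also: curves scaled with 100% = DMSO viability and 0% = empty wells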
Results filed as inconclusive are left out.
Please respond with reported z-score for every item in the list.
Give bare numbers.

Sample answers from the record:
CC(C)(C)[C@H](NC(=O)c1ccc(N)c(Cl)c1)C(=O)N1CCC[C@@H]1C(=O)N[C@H](C#N)CC(=O)O = 1.53
CS(=O)(=O)N1CCc2c(-c3cnc(N)nc3)nc(N3CCOCC3)nc21 = -2.02
CCCCCCCN(CC)CCCC(O)c1ccc(NS(C)(=O)=O)cc1 (centres undefined) = 0.349

INPUT: Given C=C(C)[C@@H]1CC[C@]2(C)CC[C@]3(C)[C@H](CC[C@@H]4[C@@]5(C)CC[C@H](O)C(C)(C)[C@H]5CC[C@]43C)[C@@H]12 , state its recorded z-score.
OUTPUT: 1.03

---

assay: Quantitative High-Throughput drug screen in 47 multiple myeloma cell lines against the NCATS MIPE library collection: KMM1_JCRB cell viability assay (AID 1918960); conditions: KMM1 myeloma viability, CellTiter-Glo ATP luminescence, 48 h; series mostly up to 45.8 µM; also: nearly all actives have a fitted effect of over 30% in size
Records with an inconclusive call do not appear. Activity calls are given as the source filed them. Calls come from the whole dose curve; as a rule, active = well fitted cell-killing curve with a large enough effect; inconclusive = small, poorly fitted or top-dose-only effect, or effect the other way; inactive = no such curve, though single readings can be large or run the other way.
Lab note: assign the record to one of active, inactive

Solved cases (4 shown):
N#Cc1cc(NC(=O)Nc2nnc(-c3ccncc3)s2)ccc1-c1cn[nH]c1 = inactive
CC(C)n1cnc2c(NCCc3ccc(O)cc3)nc(-c3csc4ccccc34)nc21 = inactive
CC(C)OC(=O)[C@H](C)N[P@](=O)(OC[C@H]1O[C@@H](n2ccc(=O)[nH]c2=O)[C@](C)(F)[C@H]1O)Oc1ccccc1 = inactive
CC1=C(C(=O)Nc2cc3cn[nH]c3cc2F)C(c2ccc(Cl)cc2F)N=C(c2ccnc(Cl)c2)N1 (stereo not given) = active

INPUT: // return assay outcome for C=CC(=O)Nc1ccc2ncnc(Nc3ccc(OCc4cccc(F)c4)c(Cl)c3)c2c1
OUTPUT: active

---

tested on: DFO2036; test: qHTS profiling for inhibitors of Plasmodium falciparum proliferation (AID 504749); also: nearly all actives have a fitted effect of over 60% in size; also: potency is read from the fitted curve at half-maximal effect; conditions: P. falciparum in erythrocytes, SYBR Green DNA, 72 h; series mostly up to 28.7 µM
Inconclusive results are not listed. Activity calls are given as the source filed them. Calls follow the shape of the dose curve; as a rule, active = well fitted inhibition curve with a large enough effect; inconclusive = small, poorly fitted or top-dose-only effect; inactive = flat fitted curve, though single readings scatter.
ENDPOINT NAME: Potency

Sample answers from the record:
Nc1nc2c(c(=O)[nH]1)N(C=O)[C@H](CNc1ccc(C(=O)N[C@@H](CCC(=O)O)C(=O)O)cc1)CN2 = inactive
OCC(O)C(O)C(O)CO (stereo unspecified) = inactive
COc1ccc2c(c1OC)C(=O)OC2[C@H]1c2c(cc3c(c2OC)OCO3)CCN1C (stereo partly specified) = inactive
COc1cccc2c1C(=O)c1c(O)c3c(c(O)c1C2=O)C[C@@](O)(C(=O)CO)C[C@@H]3O[C@H]1C[C@H](N)[C@H](OC2CCCCO2)[C@H](C)O1 (stereo partly specified) = 3.55 µM (active)
CCC(C(=O)O)C1CCC(C)C(C(C)C(O)C(C)C(=O)C(CC)C2OC3(C=CC(O)[C@@]4(CC[C@](C)(C5CC[C@@](O)(CC)C(C)O5)O4)O3)C(C)CC2C)O1 (stereo partly specified) = 0.794 µM (active)

Then there is this compound:
INPUT: Given CCCCCCCCCCCC(CC1OC(=O)C1CCCCCC)OC(=O)C(CC(C)C)NC=O (stereo unspecified) , state its recorded Potency.
OUTPUT: 0.501 µM (active)

---

experiment: NCATS anti-infectives library activity on HEK293 viability as a counter-qHTS vs the C. elegans viability qHTS (AID 1745854); conditions: HEK293 viability counter-screen; series mostly up to 41.8 µM;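 also: HEK293 cells exposed to compounds for 24 hr before the viability read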
Results filed as inconclusive are left out. Activity calls are given as the source filed them. Calls follow the shape of the dose curve; as a rule, active = well fitted cell-killing curve with a large enough effect; inconclusive = small, poorly fitted or top-dose-only effect; inactive = flat fitted curve, though single readings scatter.
Lab note: assign the record to one of yes (active), no (inactive)

Solved cases (5 shown):
Cc1cc(O)c2c(c1)C(=O)c1cccc(O)c1C2=O = no
CCS(=O)(=O)Nc1ccc2[nH]c(O)c(C(=Nc3ccc(CN4CCCCC4)cc3)c3ccccc3)c2c1 = yes
C=Cc1c(C)c2cc3nc(cc4[nH]c(cc5nc(cc1[nH]2)C(C)=C5CCC(=O)O)c(CCC(=O)OC)c4C)[C@@]1(C)C3=CC=C(C(=O)OC)[C@H]1C(=O)OC = no
CN(C)c1ccc(C(=O)NCCCCCCC(=O)NO)cc1 = no
O=c1[nH]c(=O)n([C@H]2C[C@@H](O)[C@@H](CO)O2)cc1C=CBr = no

INPUT: // return assay outcome for CC(C)C[C@H](NC(=O)[C@@H](NC(=O)c1cccc(-c2ccccc2)n1)[C@@H](C)O)B(O)O
OUTPUT: no

INPUT: // return assay outcome for CCOC(=O)C=C[C@H](C[C@@H]1CCNC1=O)NC(=O)[C@@H](CC(=O)[C@@H](NC(=O)c1cc(C)on1)C(C)C)Cc1ccc(F)cc1
OUTPUT: no

---

test: Quantitative High-Throughput drug screen in 47 multiple myeloma cell lines against the NCATS MIPE library collection: NCIH929_DSMZ cell viability assay (AID 1918978); conditions: NCI-H929 myeloma viability, CellTiter-Glo ATP, 48 h; series mostly up to 45.8 µM; also: nearly all actives have a fitted effect of over 35% in size
Inconclusive results are not listed. The source made the active and inactive calls. Calls come from the whole dose curve; as a rule, active = well fitted cell-killing curve with a large enough effect; inconclusive = small, poorly fitted or top-dose-only effect; inactive = no such curve, though single readings can be large or run the other way.
Lab note: assign the record to one of 1 (yes) for active, 0 (no) for inactive

CCN1CCN(C(=O)N[C@H](C(=O)N[C@@H]2C(=O)N3C(C(=O)O)=C(CSc4nnnn4C)CS[C@@H]23)c2ccc(O)cc2)C(=O)C1=O = 0 (no)

INPUT: // return assay outcome for CC(=O)O[C@H]1C[C@@H]2CC[C@H]3[C@H]4C[C@H]([N+]5(C)CCCCC5)[C@@H](OC(C)=O)[C@@]4(C)CC[C@@H]3[C@@]2(C)C[C@H]1[N+]1(C)CCCCC1
OUTPUT: 0 (no)

INPUT: // return assay outcome for C=CC1=C(C(=O)O)N2C(=O)[C@@H](NC(=O)C(=NO)c3csc(N)n3)[C@H]2SC1
OUTPUT: 0 (no)

INPUT: // return assay outcome for Cc1noc(-c2ccc(CSCCC(=O)O)cc2)c1NC(=O)OC(C)c1ccccc1Cl (stereo not drawn)
OUTPUT: 0 (no)

INPUT: // return assay outcome for C[C@H](NCc1ccc2c(c1)nc(NC(=O)c1ccc(-c3cn[nH]c3)s1)n2CCc1ccccc1)C(C)(C)C
OUTPUT: 1 (yes)

INPUT: // return assay outcome for NS(=O)(=O)OC[C@@H]1C[C@@H](n2ccc3c(N[C@H]4CCc5ccccc54)ncnc32)C[C@H]1O
OUTPUT: 1 (yes)

INPUT: // return assay outcome for COc1cc(OC)c(NC(=O)Nc2cc(C)on2)cc1Cl
OUTPUT: 0 (no)

INPUT: // return assay outcome for CCNC(=O)c1cc2c(-c3cc(OCCN4CCCC4)c(Cl)cc3Cl)nc(N)nc2s1
OUTPUT: 1 (yes)

INPUT: // return assay outcome for CCOC(=O)C1=C(C)NC(=S)NC1c1cccc(O)c1 (stereo not drawn)
OUTPUT: 1 (yes)

INPUT: // return assay outcome for COc1cc([C@@H]2c3cc4c(cc3[C@@H](O[C@@H]3O[C@@H]5CO[C@@H](c6cccs6)O[C@@H]5[C@H](O)[C@@H]3O)[C@H]3COC(=O)[C@H]23)OCO4)cc(OC)c1O
OUTPUT: 1 (yes)

---

assay: Quantitative High-Throughput drug screen in 47 multiple myeloma cell lines against the NCATS MIPE library collection: KMS28BM_JCRB cell viability assay (AID 1919874); details: CellTiter-Glo ATP, 48 h; series mostly up to 45.8 µM; also: nearly all actives have a fitted effect of over 35% in size
Inconclusive results are not listed. Active and inactive are the calls of the source. The call rests on the fitted dose curve; in most records, active means well fitted cell-killing curve with a large enough effect; inconclusive means small, poorly fitted or top-dose-only effect, or effect the other way; inactive means no such curve, though single readings can be large or run the other way.
Lab note: assign the record to one of active, inactive

Solved cases (5 shown):
Cc1cncc2cccc(S(=O)(=O)N3CCCN(C(=O)CN)C[C@@H]3C)c12 = active
N#Cc1cc(NC(=O)Nc2nnc(-c3ccncc3)s2)ccc1-c1cn[nH]c1 = inactive
c1cc(CN2CCCNCCNCCCNCC2)ccc1CN1CCCNCCNCCCNCC1 = inactive
Cc1cc(Nc2ncc3c(n2)N(C)C(=O)N(c2cc(NC(=O)c4cccc(C(F)(F)F)c4)ccc2C)C3)n(C)n1 = active
CCCCOc1ccc(C(=O)Nc2ccc(F)cc2F)cc1 = inactive

Here's the next entry for you.
INPUT: // return assay outcome for COc1cccc2c1C(=O)c1c(O)c3c(c(O)c1C2=O)C[C@@](O)(C(=O)CO)C[C@@H]3O[C@H]1C[C@H](N)[C@@H](O)[C@H](C)O1
OUTPUT: active

---

assay: Quantitative High-Throughput drug screen in 47 multiple myeloma cell lines against the NCATS MIPE library collection: KMS20_JCRB cell viability assay (AID 1918973); conditions: CellTiter-Glo ATP, 48 h; series mostly up to 45.8 µM; also: nearly all actives have a fitted effect of over 45% in size; also: potency is read from the fitted curve at half-maximal effect
Inconclusive results are not listed. Active and inactive are the calls of the source. The call rests on the fitted dose curve; in most records, active means well fitted cell-killing curve with a large enough effect; inconclusive means small, poorly fitted or top-dose-only effect, or effect the other way; inactive means no such curve, though single readings can be large or run the other way.
ENDPOINT NAME: Potency

Sample answers from the record:
O=c1[nH]c(=O)n([C@H]2C[C@@H](O)[C@@H](CO)O2)cc1C=CBr = inactive
COc1ccc(Nc2cc(-c3cnc(N)nc3)nc(N3CCOCC3)n2)cn1 = 4180 nM (active)
CCc1c(O)cc(O)c(C(=O)c2ccc(OCCN3CCOCC3)c(OC)c2)c1CC(=O)N(CCOC)CCOC = 526 nM (active)
CCN(CC)Cc1ccc2cc(COC(=O)Nc3ccc(C(=O)NO)cc3)ccc2c1 = 332 nM (active)

For every item in the list below, what is its measured Potency?
1. CNC(=O)c1ccc(Nc2cc(Nc3ccccc3S(=O)(=O)C(C)C)c3cc[nH]c3n2)nc1
2. C[C@H]1COc2c(N3CCN(C)CC3)c(F)cc3c(=O)c(C(=O)O)cn1c23

OUTPUT:
1: 935 nM (active); 2: inactive

For every item in the list below, what is its measured Potency?
1. COc1ccc2cc([S+]([O-])Cc3ncc(C)c(OC)c3C)nc2c1
2. CC(C)N1[N]C(=C2C=c3cc(O)ccc3=N2)c2c(N)ncnc21
3. C=CCNC1=C2C[C@@H](C)C[C@H](OC)[C@@H](O)[C@@H](C)C=C(C)[C@H](OC(N)=O)[C@@H](OC)C=CC=C(C)C(=O)NC(=CC1=O)C2=O
4. COc1cc(OC)c(C=CS(=O)(=O)Cc2ccc(OC)c(NCC(=O)O)c2)c(OC)c1
5. NC(=O)c1cccc(-c2cccc(OC(=O)NC3CCCCC3)c2)c1
6. CN(C)CC(=O)N1CCC(c2ccc(NC(=O)c3ncc(C#N)[nH]3)c(C3=CCCCC3)c2)CC1
7. O=C(Nc1cc2cc[nH]c2cn1)c1ccccc1
8. CCOC(=O)N1CCN([N+]([O-])=NOc2ccc([N+](=O)[O-])cc2[N+](=O)[O-])CC1

OUTPUT:
inactive
743 nM (active)
1 nM (active)
1180 nM (active)
inactive
13200 nM (active)
9350 nM (active)
1180 nM (active)

For every item in the list below, what is its measured Potency?
1. C#C[C@]1(O)CC[C@@H]2[C@@H]3CCc4cc(O)ccc4[C@H]3CC[C@@]21C
2. COc1cc(N2CCC(C(N)=O)CC2)ccc1Nc1nc(N)c(Cl)c(Nc2ccccc2S(=O)(=O)C(C)C)n1
3. C[C@@H](Oc1ccc2[nH]nc(C=Cc3cnn(CCO)c3)c2c1)c1c(Cl)cncc1Cl
4. CC(C)(O)[C@H]1CC[C@@](C)([C@H]2[C@@H](O)C[C@@]3(C)[C@@H]4C[C@H](O[C@@H]5O[C@H](CO)[C@@H](O)[C@H](O)[C@@H]5O)[C@H]5C(C)(C)[C@@H](O[C@@H]6OC[C@@H](O)[C@H](O)[C@@H]6O)CC[C@@]56C[C@@]46CC[C@]23C)O1
5. NC(=NCCCCCCN=C(N)N=C(N)Nc1ccc(Cl)cc1)N=C(N)Nc1ccc(Cl)cc1

OUTPUT:
1: 14800 nM (active); 2: 1 nM (active); 3: 4180 nM (active); 4: inactive; 5: 3320 nM (active)

All figures here come from PubChem BioAssay (NCATS).
